- Test system: NCI-H522 lung
- assay-explanation: NCI tumour cell line growth inhibition, 48 h
Each record here notes measured TGI.
property: TGI

C=C(C)[C@H]1C2=CC(C)=C(O2)[C@@H](O[C@@H]2c3oc(cc3C)[C@H](C(=C)C)[C@H]3C=C(CC[C@H]2C(=C)C)C(=O)O3)[C@H](C(=C)C)CCC2=C[C@H]1OC2=O :: > 100 µM
CC(=O)OCC(=O)[C@@]12OC(C)(C)O[C@@H]1C[C@H]1[C@@H]3CC(C=O)=C4C=C(OCCCl)CC[C@]4(C)[C@@]3(F)[C@@H](O)C[C@@]12C :: 92 µM
O=C1OC[C@H]2[C@@H]1[C@H]1O[C@@H]2C2=C(CCC2)C1=O :: > 100 µM
Cc1ccc(N=Nc2c(O)ccc3ccccc23)cc1 :: > 100 µM
NN=C(CC(O)(C(F)(F)Cl)C(F)(F)Cl)CC(O)(C(F)(F)Cl)C(F)(F)Cl :: > 10 µM
Cc1cccc(C)c1NC(=O)CCc1nc(=S)[nH][nH]1 :: > 100 µM
COc1ccc(/C(Cl)=C/c2cc(OC)ccc2OC)cc1 :: > 100 µM
Cc1c2cc(Cl)c3ccccc3c2c[n+]2ccccc12 :: 12.4 µM
Cc1ccc(S(=O)(=O)Nc2nnc(S(N)(=O)=O)s2)cc1 :: > 100 µM

---

Each record here notes measured TGI.
- Tested on: NCI/ADR-RES ovarian
- assay-explanation: NCI tumour cell line growth inhibition, 48 h
property: TGI (µM)

C1=C2CCCC3=Cc4ccccc4OC23Oc2ccccc21 :: 55.7
COc1ccc(C(SC2C(O)C(CO)OC2n2ccc(=O)[nH]c2=O)(c2ccccc2)c2ccc(OC)cc2)cc1 (configuration not stated) :: 47.1
c1ccc(/C(=N/Nc2ccncn2)c2ccccn2)cc1 :: 49

---

- Tested on: SK-MEL-28 melanoma
- assay-explanation: NCI tumour cell line growth inhibition, 48 h; in the data active means GI50 below about 0.43 µM; inactive means the rest
Outcome codes: 1 (active), 0 (inactive)

C#CCn1c(=O)c(C)cn(/C(=C\C(=O)OCC)C(=O)OCC)c1=O :: 0
C=CC(=O)Nc1cc(N2CCN(CC)CC2)ccc1Nc1cc(N(C)C(=O)Nc2c(Cl)c(OC)cc(OC)c2Cl)ncn1 :: 0
S=c1nc(N/N=C/c2ccco2)c2cn[nH]c2[nH]1 :: 0
C1CC[N-]CC1.CC(=N\O)/C(C)=N/O.CC(=N\O)/C(C)=N/O.OC1[CH-]CCCC1.[Co+2] :: 0
Cc1ccc(S(=O)(=O)c2nc(-c3ccccc3)oc2S(C)=O)cc1 (stereo not drawn) :: 0
COC(=O)COc1ccc(/C=C2/N=C(c3ccccc3)N(c3c(C)n(C)n(-c4ccccc4)c3=O)C2=O)cc1 :: 0
Cn1cc(C2=C(c3cn(C)c4ccc(Cl)cc34)C(=O)NC2=O)c2ccccc21 :: 0
COc1cc2c(cc1OCCCCCCN1CCN(CC(=O)Nc3ccc(Cl)cc3C(=O)c3ccccc3Cl)CC1)N=CC1CCCN1C2=O (stereo not drawn) :: 1
Cc1nc(Nc2cccnc2)sc1C(=O)/C=C/c1ccc(Cl)cc1 :: 0
CC(C)=CCC(OC(=O)C=C(C)C)C1=CC(=O)c2c(O)ccc(O)c2C1=O (stereo not drawn) :: 0
CN(C)c1nc2ccccc2c2c1c1c(n2Cc2ccccc2)-c2ccccc2C1=O :: 0
CC1=C2C(=CO[C@H](C)[C@H]2C)C(=O)C(C(=O)O)=C1O :: 0
CC(=O)[O-].[Mn+3].[O-]c1ccccc1C=NCCNCCN=Cc1ccccc1[O-] :: 0
COc1ccc(C(=O)NNc2nc(Cl)nc(N3CCN(C(c4ccccc4)c4ccccc4)CC3)n2)cc1 :: 0
O=P1(S)OC[C@H]2O[C@@H]3[C@H](F)[C@@H]2OP(O)(=S)OC[C@H]2O[C@H]([C@H](F)[C@@H]2O1)n1cnc2c(ncnc21)NC/C=C/CNc1ncnc2c1ncn23 (stereo partly drawn) :: 0
CCCCCCCCNCCC[C@@H](C)[C@H]1CC[C@H]2[C@@H]3[C@H](OCCCN)C[C@H]4C[C@H](OCCCN)CC[C@]4(C)[C@H]3C[C@H](OCCCN)[C@]12C :: 0
c1ccc(-c2nc(N3CCOCC3)c3c4c(sc3n2)CCCCCC4)nc1 :: 0
Cc1c(-c2ccnc(N)n2)c2c(n1Cc1ccccc1)C(=O)c1ccccc1C2=O :: 0
